Reference source: patent US8735421B2

Counter-ions that a name gives are not always drawn.
measurement.kind: melting point

compound=CCCc1nc2c(N)nc3cccnc3c2n1CCCCS(=O)(=O)NC result="174 to 175 °C"
compound="CCOCc1nc2c(N)nc3ccccc3c2n1CC(C)(C)CS(=O)(=O)N(C)C (as salt: hydrochloride)" result="193 to 195 °C"
compound=CCOCc1nc2c(N)nc3ccccc3c2n1CCCCS(=O)(=O)Nc1ccc(OC)cc1 result="229 to 230 °C"
compound=CCOCc1nc2c(N)nc3ccccc3c2n1CCCCS(=O)(=O)Nc1ccccn1 result="197 to 200 °C"
compound=CCOCc1nc2c(N)nc3c(c2n1CCCCS(=O)(=O)N(C)C)CCCC3 result="165 to 167 °C"

Incoming: Retrieve melting point measured for CCOCc1nc2c(N)nc3c(c2n1CCCCS(N)(=O)=O)CCCC3 and print it.
Outgoing: 224 to 227 °C

Incoming: Retrieve melting point measured for CCCc1nc2c(N)nc3cccnc3c2n1CCCCS(=O)(=O)N(C)C and print it.
Outgoing: 162 to 163 °C

Incoming: Retrieve melting point measured for CCOCc1nc2c(N)nc3ccccc3c2n1CCCCCS(N)(=O)=O and print it.
Outgoing: 176 to 178 °C

Incoming: Retrieve melting point measured for CCc1nc2c(N)nc3ccccc3c2n1CCCS(=O)(=O)NC and print it.
Outgoing: 225 to 228 °C

Incoming: Retrieve melting point measured for CCCc1nc2c(N)nc(C)c(C)c2n1CCCCS(=O)(=O)NC and print it.
Outgoing: 164 to 166 °C

Incoming: Retrieve melting point measured for CCc1nc2c(N)nc3ccccc3c2n1CCCCS(=O)(=O)N(C)C and print it.
Outgoing: 193 to 195 °C

Incoming: Retrieve melting point measured for CCOCc1nc2c(N)nc3ccccc3c2n1CC(C)(C)CS(=O)(=O)NCc1ccc(OC)cc1 and print it.
Outgoing: 203 to 205 °C

Incoming: Retrieve melting point measured for Cc1nc2c(N)nc3c(c2n1CC(C)(C)CS(N)(=O)=O)CCCC3 and print it.
Outgoing: 242 to 243 °C (dec.)

Incoming: Retrieve melting point measured for CCOCc1nc2c(N)nc3c(c2n1CCCCS(=O)(=O)NC)CCCC3 and print it.
Outgoing: 188 to 192 °C

Incoming: Retrieve melting point measured for CCOCc1nc2c(N)nc(C)c(C)c2n1CCCCS(=O)(=O)N(C)C and print it.
Outgoing: 158 to 160 °C

Incoming: Retrieve melting point measured for CCOCc1nc2c(N)nc3ccccc3c2n1CCCCS(=O)(=O)NCc1ccc(OC)cc1 and print it.
Outgoing: 101 °C

Incoming: Retrieve melting point measured for CCOCc1nc2c(N)nc3ccccc3c2n1CCCCS(N)(=O)=O and print it.
Outgoing: 155 to 158 °C

Incoming: Retrieve melting point measured for CCCCNS(=O)(=O)CCCCn1c(COCC)nc2c(N)nc3ccccc3c21 and print it.
Outgoing: 148 to 149 °C
